- testedSystem: Glucocorticoid receptor (Homo sapiens, UniProt P04150)
- Sequence (P04150 whole entry): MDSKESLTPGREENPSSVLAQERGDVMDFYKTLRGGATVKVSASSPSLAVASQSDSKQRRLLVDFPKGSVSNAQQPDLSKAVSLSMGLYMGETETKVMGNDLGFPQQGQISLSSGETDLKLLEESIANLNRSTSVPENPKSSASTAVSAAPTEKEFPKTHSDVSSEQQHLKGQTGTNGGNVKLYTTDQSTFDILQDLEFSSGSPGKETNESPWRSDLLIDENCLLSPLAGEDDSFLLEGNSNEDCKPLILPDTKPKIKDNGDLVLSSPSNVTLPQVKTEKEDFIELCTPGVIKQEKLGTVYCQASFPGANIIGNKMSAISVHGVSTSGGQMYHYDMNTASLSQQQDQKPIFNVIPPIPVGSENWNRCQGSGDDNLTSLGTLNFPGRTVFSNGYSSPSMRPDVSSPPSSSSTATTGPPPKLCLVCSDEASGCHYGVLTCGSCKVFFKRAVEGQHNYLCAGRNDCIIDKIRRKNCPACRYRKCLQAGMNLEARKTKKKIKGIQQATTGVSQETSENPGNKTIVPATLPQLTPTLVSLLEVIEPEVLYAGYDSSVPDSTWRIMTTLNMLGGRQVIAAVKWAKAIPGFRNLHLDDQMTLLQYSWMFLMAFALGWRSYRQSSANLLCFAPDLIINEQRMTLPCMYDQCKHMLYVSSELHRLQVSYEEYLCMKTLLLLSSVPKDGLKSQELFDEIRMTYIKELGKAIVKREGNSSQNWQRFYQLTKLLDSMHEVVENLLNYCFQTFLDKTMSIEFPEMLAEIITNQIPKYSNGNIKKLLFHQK
- procedureText: Ability to induce human IL-6 assay in A549 lung carcinoma cell line.
- Assay type: functional, cell-based
measuredProperty: EC50 (nM)
Numbers only; they are read as nM.

Request: Param readout = EC50; param system = Glucocorticoid receptor (Homo sapiens, UniProt P04150); param query = `C[C@H](O)[C@H]1CCCC2=Cc3c(cnn3-c3ccc(F)cc3)C[C@@]21C` ; response: value
Result: 14.3

Request: // fetch Glucocorticoid receptor (Homo sapiens, UniProt P04150) EC50 for `C[C@]12Cc3cnn(-c4ccc(F)cc4)c3C=C1CCC[C@@H]2[C@@H](O)Cc1ccc(F)cc1`
Result: 3.2

Request: Find EC50 (Glucocorticoid receptor (Homo sapiens, UniProt P04150)) for the entry `C[C@]12Cc3cnn(-c4ccc(F)cc4)c3C=C1CCC[C@@H]2[C@@H](O)c1ccc(O)cc1`
Result: 19.5
